Ref: PubChem BioAssay (NCATS)

# Assay summary: Quantitative High-Throughput drug screen in 47 multiple myeloma cell lines against the NCATS MIPE library collection: JJN3_DSMZ cell viability assay (AID 1918966; note: nearly all actives have a fitted effect of over 50% in size)
# Test parameters: JJN3 myeloma cells viability, CellTiter-Glo ATP, 48 h; series mostly up to 45.8 µM
# Source text: PI: Beverly A. Mock Ph.D. Laboratory of Cancer Biology and Genetics, Center for Cancer Research, National Cancer Institute, National Institute of Health, Bethesda, Maryland […] 5; Detector; 425V; Luminescence; Viewlux PerkinElmer. […] 1. […] Briefly, the corresponding myeloma cell lines were screened in 1,536-well plates with 500 cells, 5-uL per well for inhibition of cell viability (assessed by measuring ATP levels with CellTiterGlo). […]
Results filed as inconclusive are left out. Active and inactive are the calls of the source. Calls come from the whole dose curve; as a rule, active = well fitted cell-killing curve with a large enough effect; inconclusive = small, poorly fitted or top-dose-only effect, or effect the other way; inactive = no such curve, though single readings can be large or run the other way.
Possible outcomes: YES for active, NO for inactive

Compound	Qualitative label
CC=C(C)C(=O)O[C@H]1C(C)=C2[C@@H]3OC(=O)[C@@](C)(O)[C@@]3(O)[C@@H](OC(=O)CCC)C[C@](C)(OC(C)=O)[C@@H]2[C@@H]1OC(=O)CCCCCCC	YES
COc1cc2cc(c1Cl)N(C)C(=O)C[C@H](OC(=O)C(C)C)[C@]1(C)O[C@H]1[C@H](C)[C@@H]1C[C@@](O)(NC(=O)O1)[C@H](OC)C=CC=C(C)C2	NO
CCc1c(C(=O)C(N)=O)c2c(OCC(=O)O)cccc2n1Cc1ccccc1	NO
Cc1ccccc1-n1c(Cn2ncc3c(N)ncnc32)nc2cccc(C)c2c1=O	NO
C[C@@H]1[C@H](O)[C@@H](C)C=CC=CCCC=CC=CC=CC=C[C@H](O[C@H]2O[C@@H](C)[C@H](O)[C@@H](N)[C@@H]2O)CC2O[C@](O)(C[C@@H](O)[C@H](O)CC[C@@H](O)C[C@@H](O)C[C@@H](O)CC(=O)O[C@H]1C)C[C@H](O)[C@H]2C(=O)O	NO
C=CCON=C(C[C@H]1O[C@@H]2O[C@]3(C)CC[C@@H]4[C@H](C)CC[C@@H]([C@H]1C)[C@@]24OO3)[C@H]1O[C@@H]2O[C@]3(C)CC[C@H]4[C@H](C)CC[C@@H]([C@@H]1C)[C@@]24OO3	YES
COc1ccc2c(c[n+](C)c3c4cc5c(cc4ccc23)OCO5)c1OC	YES
COc1cc([C@@H]2c3cc4c(cc3[C@@H](O)C3COC(=O)C32)OCO4)cc(OC)c1O (stereo partly drawn)	YES
C[C@@H]1CC[C@H]2[C@@H](C)C(=O)O[C@@H]3O[C@@]4(C)CC[C@H]1[C@]32OO4	YES
C[C@]12COC(=O)C[C@@H]1CC[C@@H]1[C@H]2CC[C@@]2(C)[C@H]1CC[C@]2(C)O	NO
CCN1CCN(C(=O)Cc2ccc(Nc3ncc(F)c(Nc4ccc(C(=O)Nc5ccccc5Cl)cc4)n3)cc2)CC1	YES
CC(=Cc1csc(C)n1)[C@@H]1C[C@H]2O[C@]2(C)CCC[C@H](C)[C@@H](O)[C@@H](C)C(=O)C(C)(C)[C@@H](O)CC(=O)O1	NO
Cc1[nH]nc2ccc(-c3cncc(OC[C@@H](N)Cc4c[nH]c5ccccc45)c3)cc12	YES
